Listing of recorded Φfl by entry.
- Test summary: Photophysical properties and fluorescence quantum yields of Si-rhodamines in PBS pH 7.4
- Type: physicochemical
- Condition parameters: cresyl violet in methanol as standard
Please give the numeric answer without any surrounding text.

[[record]]
chemical_string = "COc1cc(OC)c(-n2cc(CCC(=O)NCCO)nn2)cc1C1=C2C=CC(=[N+](C)C)C=C2[Si](C)(C)c2cc(N(C)C)ccc21"
recorded_measurement = 0.20

[[record]]
chemical_string = "COc1cc(N=[N+]=[N-])c(OC)c(C2=C3C=CC(=[N+](C)C)C=C3[Si](C)(C)c3cc(N(C)C)ccc32)c1"
recorded_measurement = 0.051

[[record]]
chemical_string = "COc1cc(N)cc(C2=C3C=CC(=[N+](C)C)C=C3[Si](C)(C)c3cc(N(C)C)ccc32)c1OC"
recorded_measurement = 0.00067

[[record]]
chemical_string = "COc1ccc(-n2cc(CCC(=O)NCCO)nn2)cc1C1=C2C=CC(=[N+](C)C)C=C2[Si](C)(C)c2cc(N(C)C)ccc21"
recorded_measurement = 0.19

[[record]]
chemical_string = "COc1cc(-n2cc(CCC(=O)NCCO)nn2)cc(C2=C3C=CC(=[N+](C)C)C=C3[Si](C)(C)c3cc(N(C)C)ccc32)c1OC"
recorded_measurement = 0.18


For the next question, use this compound.
Given item COc1cc(OC)c(C2=C3C=CC(=[N+](C)C)C=C3[Si](C)(C)c3cc(N(C)C)ccc32)cc1N=[N+]=[N-] , the value recorded as its Φfl is 0.0042

====

Listing of recorded Φfl by entry.
- Test summary: Photophysical properties and fluorescence quantum yields of Si-rhodamines in PBS pH 7.4
- Type: physicochemical
- Condition parameters: cresyl violet in methanol as standard
Please give the numeric answer without any surrounding text.

[[record]]
compound = "CN(C)c1ccc2c(c1)[Si](C)(C)C1=CC(=[N+](C)C)C=CC1=C2c1cc(N)ccc1N1CCOCC1 [Compound 3-NH2]"
recorded_measurement = 0.00096

[[record]]
compound = "CN(C)c1ccc2c(c1)[Si](C)(C)C1=CC(=[N+](C)C)C=CC1=C2c1cc(-n2cc(CCC(=O)NCCO)nn2)cc2[nH]ccc12 [Compound 4-triazole]"
recorded_measurement = 0.0088

[[record]]
compound = "COc1ccc(N)cc1C1=C2C=CC(=[N+](C)C)C=C2[Si](C)(C)c2cc(N(C)C)ccc21 [Compound 2-NH2]"
recorded_measurement = 0.0025

[[record]]
compound = "COc1cc(C2=C3C=CC(=[N+](C)C)C=C3[Si](C)(C)c3cc(N(C)C)ccc32)c(OC)c(-n2cc(CCC(=O)NCCO)nn2)c1 [Compound 8-triazole]"
recorded_measurement = 0.16

[[record]]
compound = "CN(C)c1ccc2c(c1)[Si](C)(C)C1=CC(=[N+](C)C)C=CC1=C2c1ccc(-n2cc(CCC(=O)NCCO)nn2)c2ccccc12 [Compound 1-triazole]"
recorded_measurement = 0.19


For the next question, use this compound.
Given item COc1ccc(N=[N+]=[N-])cc1C1=C2C=CC(=[N+](C)C)C=C2[Si](C)(C)c2cc(N(C)C)ccc21 [Compound 2-N3] , the value recorded as its Φfl is 0.081

====

- Test summary: Photophysical properties and fluorescence quantum yields of Si-rhodamines in PBS pH 7.4
- Format: physicochemical
- Condition parameters: cresyl violet in methanol as standard
Measured endpoint: Φfl
Please give the numeric answer without any surrounding text.

[[record]]
chemical_string = "CN(C)c1ccc2c(c1)[Si](C)(C)C1=CC(=[N+](C)C)C=CC1=C2c1cc(N=[N+]=[N-])ccc1N1CCOCC1"
recorded_measurement = 0.0014

[[record]]
chemical_string = "CN(C)c1ccc2c(c1)[Si](C)(C)C1=CC(=[N+](C)C)C=CC1=C2c1ccc(N)c2ccccc12"
recorded_measurement = 0.0016

[[record]]
chemical_string = "CN(C)c1ccc2c(c1)[Si](C)(C)C1=CC(=[N+](C)C)C=CC1=C2c1cc(N=[N+]=[N-])cc2c1OCCO2"
recorded_measurement = 0.019


For the next question, use this compound.
Given item CN(C)c1ccc2c(c1)[Si](C)(C)C1=CC(=[N+](C)C)C=CC1=C2c1cc(N=[N+]=[N-])cc2[nH]ccc12 , the value recorded as its Φfl is 0.0048

====

- Test summary: Photophysical properties and fluorescence quantum yields of Si-rhodamines in PBS pH 7.4
- Assay type: physicochemical
Measured endpoint: λabs (nm)
Give a bare numeral; the unit nm is implied.

Reference set, count: 5
[[record]]
chemical_string = "CN(C)c1ccc2c(c1)[Si](C)(C)C1=CC(=[N+](C)C)C=CC1=C2c1cc(N)cc2[nH]ccc12"
measured_endpoint = "λabs"
recorded_measurement = 650

[[record]]
chemical_string = "COc1cc(C)c(C2=C3C=CC(=[N+](C)C)C=C3[Si](C)(C)c3cc(N(C)C)ccc32)cc1N=[N+]=[N-]"
measured_endpoint = "λabs"
recorded_measurement = 650

[[record]]
chemical_string = "CN(C)c1ccc2c(c1)[Si](C)(C)C1=CC(=[N+](C)C)C=CC1=C2c1cc(N)ccc1N1CCOCC1"
measured_endpoint = "λabs"
recorded_measurement = 650

[[record]]
chemical_string = "CN(C)c1ccc2c(c1)[Si](C)(C)C1=CC(=[N+](C)C)C=CC1=C2c1cc(N=[N+]=[N-])cc2c1OCCO2"
measured_endpoint = "λabs"
recorded_measurement = 655

[[record]]
chemical_string = "COc1cc(N=[N+]=[N-])c(OC)c(C2=C3C=CC(=[N+](C)C)C=C3[Si](C)(C)c3cc(N(C)C)ccc32)c1"
measured_endpoint = "λabs"
recorded_measurement = 655


Given item CN(C)c1ccc2c(c1)[Si](C)(C)C1=CC(=[N+](C)C)C=CC1=C2c1ccc(N)c2ccccc12 , the value recorded as its λabs is 653

====

- Test summary: Photophysical properties and fluorescence quantum yields of Si-rhodamines in PBS pH 7.4
- Type: physicochemical
Measured endpoint: λabs (nm)
Give a bare numeral; the unit nm is implied.

Reference set, count: 4
[[record]]
molecule = "COc1cc(N=[N+]=[N-])cc(C2=C3C=CC(=[N+](C)C)C=C3[Si](C)(C)c3cc(N(C)C)ccc32)c1OC [Compound 6-N3]"
recorded_measurement = 654

[[record]]
molecule = "COc1ccc(N=[N+]=[N-])cc1C1=C2C=CC(=[N+](C)C)C=C2[Si](C)(C)c2cc(N(C)C)ccc21 [Compound 2-N3]"
recorded_measurement = 653

[[record]]
molecule = "COc1ccc(N)cc1C1=C2C=CC(=[N+](C)C)C=C2[Si](C)(C)c2cc(N(C)C)ccc21 [Compound 2-NH2]"
recorded_measurement = 650

[[record]]
molecule = "COc1cc(OC)c(-n2cc(CCC(=O)NCCO)nn2)cc1C1=C2C=CC(=[N+](C)C)C=C2[Si](C)(C)c2cc(N(C)C)ccc21 [Compound 9-triazole]"
recorded_measurement = 655


Given item COc1cc(N)cc(C2=C3C=CC(=[N+](C)C)C=C3[Si](C)(C)c3cc(N(C)C)ccc32)c1OC [Compound 6-NH2] , the value recorded as its λabs is 652

Given item CN(C)c1ccc2c(c1)[Si](C)(C)C1=CC(=[N+](C)C)C=CC1=C2c1cc(N=[N+]=[N-])cc2[nH]ccc12 [Compound 4-N3] , the value recorded as its λabs is 660

Given item CN(C)c1ccc2c(c1)[Si](C)(C)C1=CC(=[N+](C)C)C=CC1=C2c1ccc(-n2cc(CCC(=O)NCCO)nn2)c2ccccc12 [Compound 1-triazole] , the value recorded as its λabs is 656
